- assay_comment: qHTS assay for MDR1-selective chemotherapeutics: Primary screen using the drug-selected MDR subline cells KB-V1; note: nearly all actives have a fitted effect of over 60% in size
- condition_description: KB-V1 MDR cells viability, CellTiter-Glo, 72 h; series mostly up to 46.1 µM
The whole screen tested about 400,000 compounds, of which about 13,000 (3.2%) were called active. Roughly 18% stayed inconclusive and do not appear here. Calls come from the whole dose curve; as a rule, active = well fitted cell-killing curve with a large enough effect; inconclusive = small, poorly fitted or top-dose-only effect, or effect the other way; inactive = flat fitted curve, though single readings scatter. This is one part of a sample in which actives are shown more often than they occur.
Use one of these outcomes when replying: 1 (active), 0 (inactive)

| molecule | classification |
| --- | --- |
| COc1ccccc1N1CCN(Cc2cc(OC)c3c(c2)OCO3)CC1 | 0 |

Recorded test outcome, item Cc1cccc(N(Cc2ccccc2)C(=O)c2cc(S(=O)(=O)N3CCOCC3)ccc2F)c1
0

Recorded test outcome, item Cc1ccc(CCNC(=O)CN2C(=O)CSc3ccc(S(=O)(=O)N4CCOCC4)cc32)cc1
0

Recorded test outcome, item CCCN1CCN(C(=O)CCCNC(=O)c2ccc(Cl)cc2)CC1
0

Recorded test outcome, item COc1cccc(CC(=O)N2CCCC(CCC(=O)N3CCN(c4ccccn4)CC3)C2)c1 (stereo not given)
0

Recorded test outcome, item CCCCCCN1CCN(C2CN(Cc3cn(Cc4ccc(F)cc4)nn3)S(=O)(=O)C2)CC1 (stereo not given)
0

Recorded test outcome, item CCCCNC(=O)CCNC(=O)c1ccc(C(C)(C)C)cc1
1

Recorded test outcome, item O=C(COC(=O)c1cncc(Br)c1)Nc1ccc(S(=O)(=O)N2CCOCC2)cc1
0

Recorded test outcome, item Cc1cccc(C)c1NC(=O)CN1CCN(c2ccc(F)cc2)CC1
0

Recorded test outcome, item COc1ccccc1N1CCN(Cc2ccc(OC)c3ccccc23)CC1
1

Recorded test outcome, item C=Cc1ccc(C(=O)N2CCCC(CCC(=O)N3CCN(c4ccccn4)CC3)C2)cc1 (stereo not given)
0

Recorded test outcome, item CN(C)c1ccc(/C=C/c2sc3ccccc3[n+]2CCCCBr)cc1
0

====

- assay_comment: qHTS assay for MDR1-selective chemotherapeutics: Primary screen using the drug-selected MDR subline cells KB-V1; note: nearly all actives have a fitted effect of over 60% in size
- condition_description: KB-V1 MDR cells viability, CellTiter-Glo, 72 h; series mostly up to 46.1 µM
- Source text: A prime difficulty in effectively treating cancer is the development of cellular resistance to multiple structurally unrelated anticancer drugs, a phenomenon known as multidrug resistance (MDR). […] Numerous strategies to overcome P-gp-mediated MDR have been explored, including the design of drugs that evade recognition and efflux, and development of inhibitors to block efflux and restore drug accumulation. […]
Hit rate of the full screen: of about 400,000 compounds, about 13,000 (3.2%) were called active. Roughly 18% stayed inconclusive and do not appear here. Calls come from the whole dose curve; as a rule, active = well fitted cell-killing curve with a large enough effect; inconclusive = small, poorly fitted or top-dose-only effect, or effect the other way; inactive = flat fitted curve, though single readings scatter. The list comes from a sample in which actives are over-represented; it also holds close analogues and randomly drawn compounds.
Use one of these outcomes when replying: true (1) (active), false (0) (inactive)

Worked examples, 5 compounds total:
| compound | classification |
| --- | --- |
| O=C(Nc1ccccc1F)c1ccc(Cn2cc(Br)cn2)cc1 | false (0) |
| Cc1cc(C(=O)CSc2nc(N)cc(=O)[nH]2)c(C)n1CCc1ccc(Cl)cc1 | false (0) |
| Cc1nc(SCC(=O)N2CC(=O)Nc3ccccc32)c2c(C)c(C)sc2n1 | false (0) |
| COc1ccc(Br)cc1C1CC(=O)Nc2c1c(C)nn2-c1nc(C)cc(C)n1 (stereo not given) | false (0) |
| O=C(CCl)NNc1nc(-c2ccccc2)c2cc(Cl)ccc2n1 | false (0) |

Recorded test outcome, item O=S1(=O)C[C@@H](N2CCN(CCO)CC2)[C@H](COCc2ccccc2)N1
false (0)

Recorded test outcome, item O=C(COc1ccc2oc3c(c2c1)CCCC3)Nc1ccccn1
false (0)

Recorded test outcome, item COc1ccc(C)cc1-n1c(-c2ccc(C)cc2)cc2c1CC(C)(C)CC2=O
false (0)

Recorded test outcome, item COc1ccc(-c2cnc3c(c2)C(=O)N([C@H](C)CO)C[C@@H](C)[C@H](CN(C)Cc2ccccc2)O3)cc1
false (0)

Recorded test outcome, item Cc1nc(SCC(=O)N2CCc3ccccc3C2)c2c(C)c(C)sc2n1
true (1)
